- ASSAY INFO: Human HepG2 cell viability assay in 384 well format
- Format: toxicity, cell-based
- Parameters: dose 125 nL, time 70.5 hour; concentration not given beside the values
- CONDITION: HepG2 cells, read-out: Inhibition
PROPERTY LABEL: cytotoxicity at 70.5 h
Express your answer as a number followed by its unit.

>  <MOLECULE>
CS(=O)(=O)N1CCC2(CCCN(c3ncc(F)cn3)C2)C1 (stereo unspecified)

>  <cytotoxicity at 70.5 h>
-7.4%

$$$$

State recorded cytotoxicity at 70.5 h for all listed molecules.
1. CC(=O)N1N=C(COc2ccc(C)cc2)OC1c1ccc(N(C)C)cc1 (stereo unspecified)
2. COc1c(CNC2CCCOc3ccc(F)cc32)c(C)nn1C (stereo unspecified)

1. -6.08%
2. -2.26%

State recorded cytotoxicity at 70.5 h for all listed molecules.
1. COCCN1CCC2(CCC(=O)N2Cc2csc(C)n2)CC1
2. CCn1cc(CN2CCCN(C(=O)c3cccn3C)CC2)cn1
3. CCc1ccc2nc(-c3cnn(C)c3)cc(C(=O)N3CCCC3)c2c1

-7.09%
-7.92%
-5.34%

====

Assign cytotoxicity at 70.5 h to each entry below.
- ASSAY INFO: Human HepG2 cell viability assay in 384 well format
- Format: toxicity, cell-based
- Design: dose 125 nL, time 70.5 hour; concentration not given beside the values
- CONDITION: HepG2 cells, read-out: Inhibition
Express your answer as a number followed by its unit.

Here are 6 compounds together with their reported answers.
>  <COMPOUND>
CC(C)(C(=O)NCc1ccc(C#N)cc1)n1cc(Br)cn1

>  <cytotoxicity at 70.5 h>
-2.27%

$$$$
>  <COMPOUND>
O=C(NCC(O)(c1ccco1)C1CC1)c1ccccc1F (stereo unspecified)

>  <cytotoxicity at 70.5 h>
-14.8%

$$$$
>  <COMPOUND>
COc1ccc2c(ccn2CC(=O)Nc2n[nH]c(C(C)C)n2)c1

>  <cytotoxicity at 70.5 h>
-12.1%

$$$$
>  <COMPOUND>
CO[C@@H]1c2ccccc2C2(CCN(C(=O)CNC(=O)C(C)C)CC2)[C@H]1O

>  <cytotoxicity at 70.5 h>
-6.67%

$$$$
>  <COMPOUND>
CCc1cccc(N2CCC(NC(=O)c3ccncc3)CC2)c1

>  <cytotoxicity at 70.5 h>
-4.49%

$$$$
>  <COMPOUND>
COc1ccccc1NCC(=O)NCc1scnc1C

>  <cytotoxicity at 70.5 h>
13.6%

$$$$

State recorded cytotoxicity at 70.5 h for all listed compounds.
1. CC(C)C(=O)NCc1ccc(N2CCCC2)nc1
2. CC(C)(C)c1noc(CN2CCCc3cc(OC(F)(F)F)ccc32)n1
3. O=C(c1ccc[nH]1)N1C[C@H](OCc2ccccn2)[C@H]2COC[C@H]21
4. COC(=O)c1ccc(Cn2nc(C)cc2C)c(F)c1

-3.37%
-2.73%
-5.92%
-4.1%

Reported cytotoxicity at 70.5 h ( Cn1cc(CN2CCOC(c3cccc(-c4cccc(F)c4)n3)C2)cn1 (stereo unspecified) ) = -4.34%

====

Assign cytotoxicity at 70.5 h to each entry below.
- ASSAY INFO: Human HepG2 cell viability assay in 384 well format
- Type: toxicity, cell-based
- Parameters: dose 125 nL, time 70.5 hour; concentration not given beside the values
- CONDITION: HepG2 cells, read-out: Inhibition
Give bare numbers, in %.

>  <MOLECULE>
COc1cccc(-c2noc(-c3ccc(NCC(C)C)nc3)n2)c1OC

>  <REPORTED>
-2.74

$$$$
>  <MOLECULE>
NC(=O)CN1C(=O)CO[C@H]2CN(Cc3ccc(Cl)cc3)C[C@H]21

>  <REPORTED>
13

$$$$
>  <MOLECULE>
CC(C)OCCC(=O)Nc1c(-c2ccc(F)cc2)ncn1C

>  <REPORTED>
2.71

$$$$
>  <MOLECULE>
O=C(NCC1(O)COCCN(Cc2cccc(O)c2)C1)c1cnccn1 (stereo unspecified)

>  <REPORTED>
-3.85

$$$$

State recorded cytotoxicity at 70.5 h for all listed molecules.
1. COCCOc1cc(C(=O)N2CC(C)c3ccccc32)ccn1 (stereo unspecified)
2. CN1CCc2nc(N(C)C)nc(N3CCC(O)CC3)c2C1

-11.1
-9.46

Cited source: ChEMBL document CHEMBL3507680
